Ref: ChEMBL document CHEMBL1201862

So I've got a bunch of compounds here, and I need their IC50 values.
SYSTEM_UNDER_TEST: UniProt:P00734
ASSAY_SUMMARY: Thrombin 1536 HTS Dose Response Confirmation. [Related pubchem assays: 1046 (Thrombin 1536 HTS; hits were confirmed in this assay)]
Assay type: functional
Calls of active or inactive are those of the source. Cut-off read from the data, not from the text of the source: actives have a measured IC50 and inactives only a lower limit.

Input line: Look up IC50: O=C(CSc1nc(O)c2cnn(-c3ccc(F)cc3)c2n1)N1CCCCCC1
Output line: > 50 µM (not active)

Input line: Look up IC50: CC1(C)CN(c2ccccc2)N(C(=O)c2ccc(F)cc2)C1=O
Output line: 0.837 µM (active)

Input line: Look up IC50: COc1ccc(/C=N\NS(=O)(=O)c2ccc(Cl)cc2)cc1COc1ccccc1[N+](=O)[O-]
Output line: > 50 µM (not active)

Input line: Look up IC50: COc1ccccc1CNC(=O)c1cn(C)c2ccc(S(=O)(=O)N3CCCC3)cc2c1=O
Output line: 5.95 µM (active)

Input line: Look up IC50: COc1cccc(-n2c(SCC(=O)Nc3ccc4c(c3)CCC4)nc3ccccc3c2=O)c1
Output line: > 50 µM (not active)
